Data provenance is ChEMBL document CHEMBL3400130.

Target: Mitogen-activated protein kinase kinase kinase 5 (Homo sapiens, UniProt Q99683)
Sequence (Q99683 whole entry): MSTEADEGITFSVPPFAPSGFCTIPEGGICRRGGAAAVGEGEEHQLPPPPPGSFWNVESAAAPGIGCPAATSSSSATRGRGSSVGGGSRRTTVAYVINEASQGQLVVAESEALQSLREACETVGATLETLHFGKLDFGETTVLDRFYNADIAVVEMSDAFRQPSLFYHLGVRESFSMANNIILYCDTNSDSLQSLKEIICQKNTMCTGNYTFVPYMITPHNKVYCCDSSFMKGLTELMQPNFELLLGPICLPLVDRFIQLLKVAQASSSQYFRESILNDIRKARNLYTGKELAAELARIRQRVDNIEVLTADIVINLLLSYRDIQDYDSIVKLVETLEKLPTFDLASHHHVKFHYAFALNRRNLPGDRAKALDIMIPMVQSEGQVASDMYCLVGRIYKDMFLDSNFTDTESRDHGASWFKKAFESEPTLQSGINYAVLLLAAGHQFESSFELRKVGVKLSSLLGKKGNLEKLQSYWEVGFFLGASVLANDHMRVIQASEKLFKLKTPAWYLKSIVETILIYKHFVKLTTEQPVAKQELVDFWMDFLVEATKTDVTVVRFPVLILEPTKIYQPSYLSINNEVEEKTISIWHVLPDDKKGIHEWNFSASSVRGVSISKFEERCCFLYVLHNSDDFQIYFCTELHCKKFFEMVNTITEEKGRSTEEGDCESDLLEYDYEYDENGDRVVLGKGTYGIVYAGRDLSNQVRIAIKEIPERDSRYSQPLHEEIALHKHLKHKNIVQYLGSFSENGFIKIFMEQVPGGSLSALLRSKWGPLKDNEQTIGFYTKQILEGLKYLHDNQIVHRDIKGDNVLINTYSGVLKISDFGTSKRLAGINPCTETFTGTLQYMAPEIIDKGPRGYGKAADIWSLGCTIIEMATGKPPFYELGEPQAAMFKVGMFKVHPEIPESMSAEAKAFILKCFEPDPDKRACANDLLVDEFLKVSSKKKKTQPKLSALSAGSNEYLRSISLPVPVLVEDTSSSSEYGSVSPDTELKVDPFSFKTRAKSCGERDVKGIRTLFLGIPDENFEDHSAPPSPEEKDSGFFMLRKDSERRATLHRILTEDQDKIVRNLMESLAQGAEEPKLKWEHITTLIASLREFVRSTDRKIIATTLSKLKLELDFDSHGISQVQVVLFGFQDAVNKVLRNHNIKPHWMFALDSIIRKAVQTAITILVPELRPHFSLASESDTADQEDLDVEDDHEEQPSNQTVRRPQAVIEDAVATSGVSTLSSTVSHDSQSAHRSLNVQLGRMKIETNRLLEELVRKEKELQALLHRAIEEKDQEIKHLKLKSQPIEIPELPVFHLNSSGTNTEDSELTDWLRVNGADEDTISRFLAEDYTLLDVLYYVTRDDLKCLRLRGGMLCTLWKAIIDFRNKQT
Test: Inhibition of recombinant ASK1 catalytic subunit (unknown origin) using MBP substrate and gamma-labeled 32P ATP incubated for 20 mins by liquid scintillation counting method
ENDPOINT LABEL: log10(IC50) (log10 of the value in µM)

Cc1ccc2nc(N3C(=O)C(O)=C(C(=O)c4ccco4)C3c3ccc(Cl)cc3)sc2c1 (stereo not given)
1.48
CCOc1ccc2nc(N3C(=O)C(O)=C(C(=O)c4ccccc4)C3c3ccc(Cl)cc3)sc2c1 (stereo not given)
0.62
CCOc1ccc2nc(N3C(=O)C(O)=C(C(=O)c4ccc(C)cc4)C3c3ccc(C(C)(C)C)cc3)sc2c1 (stereo not given)
0.30
COc1ccc(C(=O)C2=C(O)C(=O)N(c3nc4ccc(F)cc4s3)C2c2cccc(F)c2)cc1 (stereo not given)
1.23
COc1ccc(C2C(C(=O)c3ccc(C)o3)=C(O)C(=O)N2c2nc3ccc(C)cc3s2)cc1OC (stereo not given)
1.58
